Kindly state IC50 for each of the entries shown.
Tested on: rat hepatocytes
Test: Protection against cytotoxic effects of MNNG in hepatocytes
Format: cell-based, rat (male Sprague-Dawley)
Settings: Hepatocyte, concentration of compound required to extend by 1 hour the time needed for MNNG to kill 50% of the viable cells, 0.5 mM MNNG
Give bare numbers, in µM.

Previously resolved entries follow.
| compound | IC50, µM |
| --- | --- |
| c1ccc2c(c1)Cc1c-2[nH]c2ccccc12 [DHII, 5,10-Dihydroindeno[1,2-b]indole] | 3.1 |
| c1ccc2c(c1)Cc1[nH]c3ccccc3c1-2 [iso-DHII, 5,6-Dihydroindeno[2,1-b]indole] | 3.4 |

// below: IC50 requested for another compound
(Q) Can you look up the measured IC50 of Cn1c2c(c3ccccc31)Cc1ccccc1-2 for me?
(A) 6

---

System: red blood cells
Test: Membrane stabilization in red blood cells (red blood cell fragility test)
Assay type: cell-based, rat
Conditions: linear regression slope: percentage protection against osmolysis per μM protecting agent; pH 7.4
Kindly state RBC-PIV (red blood cell fragility protective index value) for each of the entries shown.
Numbers only, in %/μM.

| compound | measurement |
| --- | --- |
| Cn1c2c(c3ccccc31)Cc1ccccc1-2 | 0.74 |
| CC1(C)c2ccccc2-c2[nH]c3ccccc3c21 | 0.48 |
| c1ccc2c(c1)Cc1c-2[nH]c2ccccc12 [DHII, 5,10-Dihydroindeno[1,2-b]indole] | 0.49 |
| Cc1c(C)c2c(c(C)c1O)CCC(C)(CCCC(C)CCCC(C)CCCC(C)C)O2 (stereo not drawn) [α-Tocopherol (Vitamin E), α-Tocopherol, reference compound] | 0.10 |

(Q) Can you look up the measured RBC-PIV (red blood cell fragility protective index value) of c1ccc2c(c1)Cc1[nH]c3ccccc3c1-2 [iso-DHII, 5,6-Dihydroindeno[2,1-b]indole] for me?
(A) 0.50

---

System: lipid peroxidation of soy bean phospholipids
Experiment: Ascorbate/Fe^2+-dependent lipid peroxidation
Format: biochemical
Conditions: inhibition of ascorbate/Fe^2+-dependent lipid peroxidation by 50%; pH 7.4, room temperature, 30 min
Kindly state pIC50 for each of the entries shown.
Answers are plain numbers.

Previously resolved entries follow.
| molecule | pIC50 |
| --- | --- |
| CC1(C)c2ccccc2-c2[nH]c3ccccc3c21 | 6.1 |
| CC1c2ccccc2-c2[nH]c3ccccc3c21 (centres unmarked) | 5.7 |
| Cc1cc(C)c2[nH]c3c(c2c1)Cc1ccccc1-3 | 6.1 |
| CCN(CC)c1ccc2c(c1)Cc1c-2[nH]c2ccccc12 | 7.4 |

// below: pIC50 requested for another molecule
(Q) Can you look up the measured pIC50 of CC(C)c1ccc2[nH]c3c(c2c1)Cc1ccccc1-3 for me?
(A) 5.6

---

System: lipid peroxidation of soy bean phospholipids
Assay: Ascorbate/Fe^2+-dependent lipid peroxidation
Format: biochemical
Conditions: inhibition of ascorbate/Fe^2+-dependent lipid peroxidation by 50%; pH 7.4, room temperature, 30 min
Kindly state pIC50 for each of the entries shown.
Give bare numbers.

Previously resolved entries follow.
| compound | testedSystem | measurement |
| --- | --- | --- |
| c1ccc2c(c1)Cc1[nH]c3ccccc3c1-2 [iso-DHII, 5,6-Dihydroindeno[2,1-b]indole] | lipid peroxidation of soy bean phospholipids | 5.8 |
| c1ccc2c(c1)Cc1c-2[nH]c2ccccc12 [DHII, 5,10-Dihydroindeno[1,2-b]indole] | lipid peroxidation of soy bean phospholipids | 5.8 |
| Fc1ccc2[nH]c3c(c2c1)Cc1ccccc1-3 [8-Fluoro-DHII, 5,10-Dihydro-8-fluoroindeno[1,2-b]indole] | lipid peroxidation of soy bean phospholipids | 5.6 |

Return reported pIC50 values for all items listed beneath this line.
1. COc1ccc2[nH]c3c(c2c1)-c1ccccc1C3 [9-Methoxy-iso-DHII, 5,6-Dihydro-9-methoxyindeno[2,1-b]indole]
2. Clc1cccc2c3c([nH]c12)-c1ccccc1C3 [6-Chloro-DHII, 5,10-Dihydro-6-chloroindeno[1,2-b]indole]
3. Cc1ccc2[nH]c3c(c2c1)Cc1ccccc1-3 [8-Methyl-DHII, 5,10-Dihydro-8-methylindeno[1,2-b]indole]
4. Cc1c(C)c2c(c(C)c1O)CCC(C)(CCCC(C)CCCC(C)CCCC(C)C)O2 (stereo not drawn) [α-Tocopherol (Vitamin E), α-Tocopherol, reference compound]
5. Cn1c2c(c3ccccc31)Cc1ccccc1-2

(A)
[6.4, 5.2, 5.7, 5.0, 5.1]

Return reported pIC50 values for all items listed beneath this line.
1. CCNc1ccc2c(c1)Cc1c-2[nH]c2ccccc12
2. COc1ccc2[nH]c3c(c2c1)Cc1ccccc1-3

(A)
[7.9, 6.2]
